Cited source: PubChem BioAssay

# Assay Summary: probe aXIP binding to arrayed compounds – biochemical, NeuroSMM set, 635/667 nm fluorescence, primary screen (AID 1119);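 also: probe is the protein aXip251-270 applied at 1 µg/mL to compound-printed slides; binding of probe to printed compounds measured as 667 nm fluorescence plus signal to noise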
# Condition Notes: small-molecule microarray, higher = more signal, called active from +8 up or from −8 down
Recorded composite Z-score by entry
Answer using only a numeral; do not append any unit.

Some solved entries appear below for comparison.
{"columns": ["Compound", "Result Type", "Result Number"],
 "data": [
  ["COC(=O)c1c2oc(c1C(=O)OC)C(=O)NC1(CCCCC1)c1cn(nn1)C[C@H](Cc1ccccc1)NC(=O)N[C@H](CO)CC2", "composite Z-score", 0.992],
  ["CCOC(=O)C1=CC[C@H]2C(=O)N(c3ccccc3)C(=O)[C@@H]12", "composite Z-score", 1.58],
  ["Cc1ccc(S[C@]2(C(=O)NCC(C)C)CC(=O)N(Cc3cc(C(F)(F)F)cc(C(F)(F)F)c3)[C@@H]2c2ccc(CO)cc2)cc1", "composite Z-score", -0.0662],
  ["CC(C)=CCCC(C)=CC(O)C1C=CC2C(=O)N(c3ccccc3)C(=O)C2N1Nc1ccc(C(C)C)cc1 (stereo not given)", "composite Z-score", 0.415],
  ["CN(C)CCCCNC(=O)[C@@H]1C[C@@H]2C(=O)N[C@@H](CCCCN)C(=O)N2[C@@H]1c1ccc(O)cc1", "composite Z-score", 0.237]
]}

### Prompt Dear colleague, I am looking for the recorded composite Z-score of the following compound: COC(=O)[C@@]1(Cc2ccc(F)cc2)[C@H]2c3cc(C(=O)N(C)C)n(Cc4cc(C)n(C)n4)c3C[C@H]2CN1C(=O)c1ccccc1
### Response 0.467

### Prompt Dear colleague, I am looking for the recorded composite Z-score of the following compound: Cc1ccc(S(=O)(=O)N2C[C@@H](C(=O)O)[C@H](Sc3ccccc3)C[C@H]2c2ccccc2)cc1
### Response -0.202
